- Tested on: mice; note: test concentration or dose not given here
- Measurement Context: mouse, in vivo, ip
# Tail Flick .5 hr (percentage of analgesia response) annotations
Write the value as a bare number.

>>> print(df.to_string())
                              compound  test_result
0  COc1ccc(Cl)c2c1CCC(CN1CCC(C)CC1)=C2            0

## Task What does the record list as Tail Flick .5 hr (percentage of analgesia response) for `COc1ccc(Cl)c2c1CCC(CNCC1CC1)=C2` ?
## Result 20

## Task What does the record list as Tail Flick .5 hr (percentage of analgesia response) for `COc1ccc(Cl)c2c1CCC(CN1CCN(CCO)CC1)=C2` ?
## Result 10

## Task What does the record list as Tail Flick .5 hr (percentage of analgesia response) for `COc1ccc(Cl)c2c1CCC(CN1CCSC1)=C2` ?
## Result 0

## Task What does the record list as Tail Flick .5 hr (percentage of analgesia response) for `COc1ccc(Cl)c2c1CCC(CN1CC=C(c3ccc(Cl)cc3)CC1)=C2` ?
## Result 0

## Task What does the record list as Tail Flick .5 hr (percentage of analgesia response) for COc1ccc(Cl)c2c1CCC(CN1CCC(OC(C)=O)(c3ccccc3)CC1)=C2 [drawing 79] ?
## Result 90

## Task What does the record list as Tail Flick .5 hr (percentage of analgesia response) for `COc1ccc(Cl)c2c1CCC(CN(C)CCN1CCCC1)=C2` ?
## Result 0
